tested on: fibronectin; assay: Cell adhesion-inhibitory test against fibronectin (competitive assay, number of adhered cells); format: cell-based, human; conditions: concentration 1.5 mg/ml; endothelium cells of blood vessel; 37° C., one hour; 0 mg/ml control 160
No end group written: not given here. succinylated CM‑chitin = succinylated carboxymethyl-chitin (CM-chitin), conjugated to the peptide; sulfated succinylated CM‑chitin = sulfated succinylated CM-chitin
Below, each of the substances is paired with its reported Cell Adhesion-Inhibitory effect Against Fibronectin (number of adhered cells) value.
Express your answer in cell/well, writing the number without its unit.

Consider the reported Cell Adhesion-Inhibitory effect Against Fibronectin (number of adhered cells) for these substances:
For this substance ( CM-Chitin Arg-Gly-Asp-Ser (RGDS; also: conjugated to CM-chitin) [CM--chitin derivative-18] ), measured Cell Adhesion-Inhibitory effect Against Fibronectin (number of adhered cells) is 52

For this substance ( Sulfated Succinylated CM-Chitin-Gly-Arg-Gly-Asp-Ser ({sulfated succinylated CM‑chitin}-GRGDS) [CM--chitin derivative-16] ), measured Cell Adhesion-Inhibitory effect Against Fibronectin (number of adhered cells) is 50

Next item in the queue.
For this substance ( Succinylated CM-Chitin-Arg-Gly-Asp-Ser ({succinylated CM‑chitin}-RGDS) [CM--chitin derivative-2] ), measured Cell Adhesion-Inhibitory effect Against Fibronectin (number of adhered cells) is 75

* * *

Tested on: human plasma rich in platelet
Experiment: Platelet coagulation-inhibitory activity in vitro, transmittance by aggregometer
Type: cell-based
Conditions: ADP stimulation (50 μM ADP solution), 37° C., 3 minutes preincubation
Method: The platelet coagulation-inhibitory effect of the CM-chitin derivative of the present invention was assayed, in vitro, using human plasma rich in platelet. The experimental method will be described below. To fresh human blood, there was added 1/9 volume of a 3.8% sodium citrate solution, the resulting mixture was centrifuged (1000 rpm; for 10 minutes) and the upper layer was separated as a plasma rich in platelet. […]
No end group written: not given here. succinylated CM‑Chitin = succinylated CM-chitin; CM‑Chitin = carboxymethyl chitin
Label condition met when Platelet Coagulation-Inhibitory Action IC50, ADP Stimulation >= 20 µg/mL; otherwise condition not met.

Hi team, for Succinylated CM-Chitin Gly-Arg-Gly-Asp-Ser (GRGDS; also: conjugated to succinylated CM-chitin) [CM--chitin derivative-8] , is the recorded Platelet Coagulation-Inhibitory Action IC50, ADP Stimulation at or above 20 µg/mL?
condition met

Hi team, for Succinylated CM-Chitin-(Arg-Gly-Asp)3 ({succinylated CM‑Chitin}-RGDRGDRGD) [CM--chitin derivative-11] , is the recorded Platelet Coagulation-Inhibitory Action IC50, ADP Stimulation at or above 20 µg/mL?
condition met

Hi team, for Itaconyl Derivative of CM-Chitin Arg-Gly-Asp-Ser (RGDS; also: conjugated to itaconyl CM-chitin) [CM--chitin derivative-5] , is the recorded Platelet Coagulation-Inhibitory Action IC50, ADP Stimulation at or above 20 µg/mL?
condition not met

Hi team, for Succinylated CM-Chitin-(Arg-Gly-Asp)5 ({succinylated CM‑Chitin}-RGDRGDRGDRGDRGD) [CM--chitin derivative-12] , is the recorded Platelet Coagulation-Inhibitory Action IC50, ADP Stimulation at or above 20 µg/mL?
condition met

Please examine the following record next.
Hi team, for CM-chitin-Arg-Gly-Asp-Ser-Gly-NH2 ({CM‑Chitin}-RGDSG-NH2; also: conjugated to CM-chitin) [CM--chitin derivative-17] , is the recorded Platelet Coagulation-Inhibitory Action IC50, ADP Stimulation at or above 20 µg/mL?
condition not met
